System: MCF-7 cell line
protocol-description: MTT cytotoxicity assay, MCF-7
Format: cell-based
condition-set: Homo sapiens, MCF7, 24 h, read-out: IC50, MCF-7
reported-metric: log10 IC50 (log10 of the value in µg/mL)

COc1ccc(-c2cc(=O)c3c(O)cc(O[C@@H]4O[C@H](CO[C@@H]5O[C@@H](C)[C@H](O)[C@@H](O)[C@H]5O)[C@@H](O)[C@H](O)[C@H]4O)cc3o2)cc1O [Compound 1, Diosmetin-7-O-rutinoside] :: 1.14
O=C(O)/C=C/c1ccc(O)c(O)c1 :: 1.61
O=C(/C=C/c1ccc(O)c(O)c1)O[C@@H]1C[C@](O)(C(=O)O)C[C@@H](O)[C@H]1O :: 2.57
O=c1c(O[C@@H]2O[C@H](CO)[C@H](O)[C@H](O)[C@H]2O)c(-c2ccc(O)c(O)c2)oc2cc(O)cc(O)c12 [Compound 3, Quercetin-3-O-galactoside] :: 2.17
COc1cc(-c2oc3cc(O)cc(O)c3c(=O)c2O[C@@H]2O[C@H](CO[C@@H]3O[C@@H](C)[C@H](O)[C@@H](O)[C@H]3O)[C@@H](O)[C@H](O)[C@H]2O)ccc1O [Compound 2, Isorhamnetin-3-O-rutinoside] :: 2.14

====

Tested on: MDA-MB-231 cell line
protocol-description: Annexin V-FITC/PI flow cytometry, MDA-MB-231
Type: cell-based
condition-set: 48 h; quadrant LL; highest doses of compounds
reported-metric: viable cells, MDA-MB-231 (%)

OO [Compound H2O2, hydrogen peroxide, reference compound] :: 21
COc1cc(-c2oc3cc(O)cc(O)c3c(=O)c2O[C@@H]2O[C@H](CO[C@@H]3O[C@@H](C)[C@H](O)[C@@H](O)[C@H]3O)[C@@H](O)[C@H](O)[C@H]2O)ccc1O [Compound 2, Isorhamnetin-3-O-rutinoside] :: 63
O=C(O)/C=C/c1ccc(O)c(O)c1 :: 30
O=C(/C=C/c1ccc(O)c(O)c1)O[C@@H]1C[C@](O)(C(=O)O)C[C@@H](O)[C@H]1O :: 51
COc1ccc(-c2cc(=O)c3c(O)cc(O[C@@H]4O[C@H](CO[C@@H]5O[C@@H](C)[C@H](O)[C@@H](O)[C@H]5O)[C@@H](O)[C@H](O)[C@H]4O)cc3o2)cc1O [Compound 1, Diosmetin-7-O-rutinoside] :: 56
O=c1c(O[C@@H]2O[C@H](CO)[C@H](O)[C@H](O)[C@H]2O)c(-c2ccc(O)c(O)c2)oc2cc(O)cc(O)c12 [Compound 3, Quercetin-3-O-galactoside] :: 46

====

Test system: MDA-MB-231 cell line
protocol-description: MTT cytotoxicity assay, MDA-MB-231
Format: cell-based
condition-set: Homo sapiens, MDA-MB-231, 24 h, read-out: IC50, MDA-MB-231
Catalogue of IC50 readings, one per entry.
reported-metric: IC50

O=C(/C=C/c1ccc(O)c(O)c1)O[C@@H]1C[C@](O)(C(=O)O)C[C@@H](O)[C@H]1O :: 361 µg/mL
COc1ccc(-c2cc(=O)c3c(O)cc(O[C@@H]4O[C@H](CO[C@@H]5O[C@@H](C)[C@H](O)[C@@H](O)[C@H]5O)[C@@H](O)[C@H](O)[C@H]4O)cc3o2)cc1O [Compound 1, Diosmetin-7-O-rutinoside] :: 12.9 µg/mL
O=c1c(O[C@@H]2O[C@H](CO)[C@H](O)[C@H](O)[C@H]2O)c(-c2ccc(O)c(O)c2)oc2cc(O)cc(O)c12 [Compound 3, Quercetin-3-O-galactoside] :: 141 µg/mL
O=C(O)/C=C/c1ccc(O)c(O)c1 :: 64 µg/mL
COc1cc(-c2oc3cc(O)cc(O)c3c(=O)c2O[C@@H]2O[C@H](CO[C@@H]3O[C@@H](C)[C@H](O)[C@@H](O)[C@H]3O)[C@@H](O)[C@H](O)[C@H]2O)ccc1O [Compound 2, Isorhamnetin-3-O-rutinoside] :: 77.8 µg/mL
